- PROCEDURE DETAILS: Human HepG2 cell viability assay in 384 well format
- Assay type: toxicity, cell-based
- Design: dose 125 nL, time 70.5 hour; concentration not given beside the values
- CONDITION LABEL: HepG2 cells, read-out: Inhibition
MEASUREMENT TYPE: cytotoxicity at 70.5 h (%)
Give just the numeric value; % need not be written.

Value lookup for cytotoxicity at 70.5 h; key = CC(=O)N1CC(=O)N(c2cccnc2)CC12CCN(Cc1nccs1)C2 (stereo unspecified)
-0.821

Also need Cc1ccc(C)c(NC(=O)C(C)N2CCCN(c3nccs3)CC2)c1 (stereo unspecified) , thanks.
-6.54

Also need CCCn1nnnc1COc1ccc(C(=O)OC)cc1 , thanks.
-11.5

Also need CC(C)CNC[C@H]1COCc2nc3cccnc3n21 , thanks.
10

Also need CN(C)CCN1C2(CCN(Cc3nccs3)C2)c2ccccc2S1(=O)=O (stereo unspecified) , thanks.
24.4

Also need O=C(CCC(F)(F)F)N1CCN(Cc2ccncc2)[C@@H]2CS(=O)(=O)C[C@@H]21 , thanks.
24

Also need CCO[C@@H]1CCN(c2ccc(C)nn2)[C@@H]1Cc1cnn(C)c1 , thanks.
-10.9

Also need CCOC(=O)CNC(=O)N1CCCC(CNC(=O)c2ccco2)C1 (stereo unspecified) , thanks.
-1.85

Also need CN(Cc1cc2n(n1)CCCNC2)Cc1ccno1 , thanks.
-5.8

Also need Cc1ccc(-n2ccnc2)c(C(=O)NCCOCC(F)(F)F)c1 , thanks.
-8.14

Also need COc1cccc(OC)c1-c1ccnc2cc(CC(=O)N(C)C)nn12 , thanks.
-11.5

----------
Provide the reported cytotoxicity at 70.5 h of each item.
- PROCEDURE DETAILS: Human HepG2 cell viability assay in 384 well format
- Format: toxicity, cell-based
- Set-up: dose 125 nL, time 70.5 hour; concentration not given beside the values
- CONDITION LABEL: HepG2 cells, read-out: Inhibition
Give just the numeric value; % need not be written.

Value lookup for cytotoxicity at 70.5 h; key = c1ccc(CNC[C@H]2COCc3nc4cccnc4n32)cc1
11.9

Also need CC(C)=CCN1C[C@@H]2CN(C(=O)c3cnccc3C)C[C@]2(C(=O)O)C1 , thanks.
-7.13

Also need OC1CCN(c2ccc(CNc3nc4ccccc4o3)cc2F)CC1 , thanks.
-9.97

Also need Cc1ccc(S(=O)(=O)N2CCOCC2C#N)cc1Br (stereo unspecified) , thanks.
-6.92

Also need c1ccc(-c2noc(C3CCN(CCCn4cncn4)CC3)n2)cc1 , thanks.
0.0875

Also need COc1ccc2c(c1)CC(C1CCOCC1)N(C(=O)c1cnccn1)C2 (stereo unspecified) , thanks.
0.645

Also need NCc1cn(-c2ccccc2C(=O)NCc2ccccc2)cn1 , thanks.
-18.9

Also need COCC1COCCC12CCN(C(=O)CCc1ccccc1)CC2 (stereo unspecified) , thanks.
5.59

Also need CN(Cc1n[nH]c(=O)n1CCc1ccccc1F)S(C)(=O)=O , thanks.
-1.83

Also need CCC(Nc1nnnn1-c1ccccc1)C(=O)NC1CCSCC1 (stereo unspecified) , thanks.
-9.32

Also need Cc1ccc(CN2CCc3c(C(=O)N(C)C)n[nH]c3C2)o1 , thanks.
-8.34

----------
- PROCEDURE DETAILS: Human HepG2 cell viability assay in 384 well format
- Format: toxicity, cell-based
- Parameters: dose 125 nL, time 70.5 hour; concentration not given beside the values
- CONDITION LABEL: HepG2 cells, read-out: Inhibition
MEASUREMENT TYPE: cytotoxicity at 70.5 h (%)
Give just the numeric value; % need not be written.

Value lookup for cytotoxicity at 70.5 h; key = CCc1noc(C(C)N2CCC(NS(=O)(=O)c3ccccc3)CC2)n1 (stereo unspecified)
19.7

Also need O=C(NC[C@]1(O)CN(Cc2ccc(F)cc2)C[C@H]1O)c1ccccn1 , thanks.
-6.05

Also need Cc1ccc(CN2CCC3(C2)C(=O)N(CC2CC2)c2ccccc23)s1 (stereo unspecified) , thanks.
-8.57

Also need CC(C)(C)c1oc(C(N)=O)cc1CN1CCCCC1CN1CCOCC1 (stereo unspecified) , thanks.
39.9

Also need COC(=O)C1CN(Cc2ccn(-c3ccc(F)cc3)n2)C[C@@H](C)O1 (stereo partly specified) , thanks.
21.2

Also need O=C1CCCN1Cc1nc(-c2ccsc2)no1 , thanks.
19.8

Also need Cc1nc(C)n(CC2CCCN2CC(=O)NCc2ccco2)n1 (stereo unspecified) , thanks.
-2.21

Also need CCc1cc(=O)[nH]c2nnc(SCC(=O)NC)n12 , thanks.
14.5

Also need O=C(C1CCC1)N1CCN(C(=O)c2cnccn2)[C@H]2CS(=O)(=O)C[C@H]21 , thanks.
-11.7

Also need CC(C)C(=O)Nc1ccc(C(O)Cn2nc(-c3cccs3)oc2=O)cc1 (stereo unspecified) , thanks.
28.2

Also need Cc1cc(C)n(C2CCCN(C(=O)CCCc3ccccn3)C2)n1 (stereo unspecified) , thanks.
-0.29

Data origin: ChEMBL document CHEMBL3507680
